Each recorded value in this set is attributed to the supplement of paper PMC6755084.

Tested on: F1*sub RNA substrate (template-directed ligation)
PROTOCOL SUMMARY: fraction ligated after 30 min (ligated reads / total reads); higher = more ligase activity; sequences stand for … in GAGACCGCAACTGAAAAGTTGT…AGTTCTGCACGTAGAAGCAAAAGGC
RECORDED CONDITIONS: 42 °C
Catalogue of sequences with associated fraction ligated
ASSAY READOUT: fraction ligated

# QUERY SEQUENCE, RESULT NUMBER
measured = [
    ("TATCACTTGTCGTAAACACTTTGGATGGTTGA [2d241]", 0.295),
    ("ATCACTTTCGTAAGAACTTTGGATGGGTTGA [3d130]", 0.849),
    ("TATCCTTGTCGTAAACACTTTGGATGGGTTA [3d1063]", 0.416),
    ("TATCATTGTCGTAGACACTTTGATGGGTTGA [3d1221]", 0.774),
    ("ATCACTTTCGTAAACACTTTGGATGGGTTGA [3d128]", 0.779),
    ("TATCACTTGTGTAAGCACTTTGGATGGGTTA [3d1762]", 0.831),
    ("TATCATTGTCGAAGCACTTTGGATGGGTTGA [3d1203]", 0.784),
    ("ATCCTTGTCGTAAGACACTTTGGTGGGTTGA [3d81]", 0.169),
    ("TATCACTTGTCGTAAGACACTGATGGGTTGA [3d2232]", 0.0313),
    ("TATACTTGTCGTAAGACACTTTGTGGGTTGA [3d933]", 0.0152),
    ("TATCATTTCGTAAGACCTTTGGATGGGTTGA [3d1147]", 0.775),
    ("TACATTGTCGTAAGACACTTTGGATGGTTGA [3d563]", 0.303),
    ("TTCATTGTCGTAAGACATTTGGATGGGTTGA [3d328]", 0.5),
    ("TATCACTTGTCGTAAGACACTTTGATGGTTG [3d2268]", 0.0103),
    ("TATCATTGGTAAGACACTTTGGATGGGTTGA [3d1156]", 0.809),
    ("TATCATTTCGTAAGACATTTGGATGGGTTGA [3d1148]", 0.801),
    ("TATCACTTGCGTAAGACACTTTGGTGGGTTA [3d1696]", 0.0753),
    ("TATACTTGTCGTAAACATTTGGATGGGTTGA [3d885]", 0.78),
    ("TATACTGTCTAAGACACTTTGGATGGGTTGA [3d781]", 0.651),
    ("TACATTGTCGTAAGACACTTTGGAGGGTTGA [3d562]", 0.16),
    ("TTCACTTGTCGTAAACACTTGGATGGGTTGA [3d445]", 0.0492),
    ("ATCACTTGTCTAAGACACTTTGGATGGGTTG [3d184]", 0.762),
    ("TATCACTTGTCGTAGACACTTGGATGGTTGA [3d2039]", 0.095),
    ("TATCACTTTCGTAAGACACTTTGGAGGTTGA [3d1578]", 0.0266),
    ("TATCATGTCGTAAGACATTTGGATGGGTTGA [3d1132]", 0.801),
    ("TATCACTTGTCGTAGACACTTTGGATGGGTTA [2d232]", 0.825),
    ("TAACTTGTCGTAAGACCTTTGGATGGGTTGA [3d519]", 0.196),
    ("TATCATGTCGTAAGACACTTGGATGGGTTGA [3d1133]", 0.776),
    ("TATCACTTTCGTAGACCTTTGGATGGGTTGA [3d1510]", 0.78),
    ("TATCACTTGTCGTAAGAACTTGGATGGGTTA [3d2164]", 0.404),
    ("TATCCTTGTCGTAAAACTTTGGATGGGTTGA [3d1055]", 0.792),
    ("TATCATTCGTAAGACACTTTGGATGGGTTGA [3d1122]", 0.776),
    ("TTCACTTGTGTAAGACACTTTGGTGGGTTGA [3d397]", 0.00981),
    ("TATCACTTGTGTAAGACACTTTGGAGGGTTA [3d1804]", 0.0394),
    ("TATCACTGTCGTAAGACATTTGATGGGTTGA [3d1434]", 0.79),
    ("TATCACTTGTCTAAGACATTTGGAGGGTTGA [3d1874]", 0.0252),
    ("TATCCTTGTCGTAAGACACTTTGGATGGGTTG [2d108]", 0.781),
    ("ATCATTGTCGTAAGACACTTTGGTGGGTTGA [3d100]", 0.109),
    ("TATCACTTGTCGTAAACACTTGGAGGGTTGA [3d2084]", 0.0636),
    ("TCACTTGTCGTAAGACACTTTGGATGGGTTG [3d23]", 0.797),
    ("TATCCTTTCGTAAGACACTTGGATGGGTTGA [3d977]", 0.76),
    ("TATCACTTGTCGAAGACATTTGGAGGGTTGA [3d1953]", 0.021),
    ("TATCACTTGTCTAAGACACTTTGGAGGGTTA [3d1896]", 0.134),
    ("TATCACTTGTCGTAAACACTTGGATGGTTGA [3d2085]", 0.105),
    ("TATCATTGTCGTAGACACTTTGGATGGGTTG [3d1226]", 0.799),
    ("TATCATTGTGTAAGAACTTTGGATGGGTTGA [3d1177]", 0.856),
    ("TACACTGTCGTAGACACTTTGGATGGGTTGA [3d572]", 0.322),
]
